- ASSAY_SYSTEM: Man(a1-2)Man(a1-3)[Man(a1-2)Man(a1-6)]Man(a1-6)[Man(a1-2)Man(a1-2)Man(a1-3)]Man
- RUN_DESCRIPTION: glycan array binding signal (z-score within array); higher = stronger binding
- MEASUREMENT_PARAMETERS: glycan notation: IUPAC condensed, linker removed
Shown is part of a subset that was picked to be rich in the strongest signals.
METRIC: glycan array binding signal (z-score)
Form: value (number only, do not type unit).

# example entries with known answers
BINDER	METRIC	EXPERIMENTAL_RESULT
ConA (Canavalia ensiformis), P02866 (protein) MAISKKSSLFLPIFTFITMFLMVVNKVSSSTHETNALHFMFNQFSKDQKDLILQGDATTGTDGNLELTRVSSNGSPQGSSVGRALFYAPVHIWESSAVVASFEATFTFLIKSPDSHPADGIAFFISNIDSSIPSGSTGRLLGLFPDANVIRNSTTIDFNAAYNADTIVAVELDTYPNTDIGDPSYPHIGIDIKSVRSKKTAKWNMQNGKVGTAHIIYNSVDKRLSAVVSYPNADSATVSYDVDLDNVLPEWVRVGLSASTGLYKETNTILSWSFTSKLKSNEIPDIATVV	glycan array binding signal (z-score)	7.48
LecB PA7 (Pseudomonas aeruginosa) (protein) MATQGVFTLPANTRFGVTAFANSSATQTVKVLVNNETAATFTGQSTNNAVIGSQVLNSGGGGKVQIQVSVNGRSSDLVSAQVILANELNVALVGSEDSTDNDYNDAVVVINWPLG	glycan array binding signal (z-score)	3.2

From here, focus on the item given below.
Short answer for PfulAvr4 2 (Pseudocercospora fuligena) (protein) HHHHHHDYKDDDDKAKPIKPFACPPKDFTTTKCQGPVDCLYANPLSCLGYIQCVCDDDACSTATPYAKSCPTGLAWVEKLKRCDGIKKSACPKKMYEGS : glycan array binding signal (z-score) was -0.359
